Tested on: TGF-β-stimulated SMAD3 phosphorylation in BEAS-2B cells
protocol: Cellular ALK5 potency assay, inhibition of TGF-β stimulated pSMAD3 formation in BEAS-2B cells
Type: cell-based
condition description: Homo sapiens, inhibition of TGF-β (10 ng/mL) stimulated pSMAD3 formation, 1 hour compound incubation, read-out: BEAS2B pIC50 (converted)
metric name: IC50

Worked cases, IC50 given:
compound	metric name	recorded measurement
OCCN1CCN(c2cnc3ccc(-c4c[nH]nc4-c4ccc(F)c(F)c4)nc3c2)CC1	IC50	0.0251 to 0.158 µM
COC(=O)[C@H]1CN(c2cnc3ccc(-c4c[nH]nc4-c4cc(Cl)ccc4F)nc3c2)CCN1C	IC50	0.0251 to 0.158 µM
CC(C)(C)N1CCN(CCNc2cnc3ccc(-c4c[nH]nc4-c4cc(Cl)c(F)cc4F)nc3c2)CC1	IC50	0.0251 to 0.158 µM
Cc1oc(=O)oc1CN1CCN(c2cnc3ccc(-c4nc[nH]c4-c4cc(Cl)ccc4F)nc3c2)CC1	IC50	0.2 to 1.26 µM
CN1CCN(C2CCN(c3cnc4ccc(-c5nc[nH]c5-c5cc(Cl)ccc5F)cc4c3)CC2)CC1	IC50	0.0251 to 0.158 µM
CN1CC(Nc2cnc3ccc(-c4c[nH]nc4-c4cc(Cl)ccc4F)nc3c2)C1	IC50	≤ 0.02 µM

I am curious: what IC50 value has been reported for CNC1CCN(c2cnc3ccc(-c4c(-c5cc(Cl)ccc5F)[nH]c5cccnc45)nc3c2)CC1 ? 0.2 to 1.26 µM

Thanks! And CC(C)N1CC[C@@H](N(C)c2cnc3ccc(-c4c[nH]nc4-c4cc(Cl)c(F)cc4F)nc3c2)C1 ? 0.0251 to 0.158 µM

Thanks! And NC1CN(c2cnc3ccc(-c4c[nH]nc4-c4cc(Cl)c(F)cc4F)nc3c2)C1 ? 0.0251 to 0.158 µM

====

Test system: TGF-β-stimulated SMAD3 phosphorylation in BEAS-2B cells
protocol: Cellular ALK5 potency assay, inhibition of TGF-β stimulated pSMAD3 formation in BEAS-2B cells
Assay type: cell-based
condition description: Homo sapiens, inhibition of TGF-β (10 ng/mL) stimulated pSMAD3 formation, 1 hour compound incubation, read-out: BEAS2B pIC50 (converted)
metric name: IC50

compound	IC50
O=C(O)CC1CNCCN1CCNc1cnc2ccc(-c3nc[nH]c3-c3cc(Cl)ccc3F)nc2c1 (stereo not drawn)	200 to 1260 nM
CNCCn1ccc(-c2cnc3ccc(-c4c[nH]nc4-c4ccc(F)c(F)c4)nc3c2)n1	25.1 to 158 nM
CNCCn1cc(-c2cnc3ccc(-c4c(-c5ccc(F)c(F)c5)[nH]c5cccnc45)nc3c2)cn1	25.1 to 158 nM
Fc1cc(F)c(-c2n[nH]cc2-c2ccc3ncc(-c4cnc5n4CCNC5)cc3n2)cc1Cl	25.1 to 158 nM
CC(C)N1CC=C(c2cnc3ccc(-c4c[nH]nc4-c4ccc(F)c(F)c4)nc3c2)C1	25.1 to 158 nM
O=C(O)[C@H]1CN(c2cnc3ccc(-c4nc[nH]c4-c4cc(Cl)c(F)cc4F)cc3c2)CCN1	1580 to 10000 nM
Fc1ccc(Cl)cc1-c1[nH]cnc1-c1ccc2ncc(-c3cn[nH]c3)cc2n1	25.1 to 158 nM
Fc1ccc(Cl)cc1-c1n[nH]cc1-c1ccc2ncc(-c3cn(Cc4c[nH]cn4)nn3)cc2n1	25.1 to 158 nM
COC(=O)c1coc(-c2cnc3ccc(-c4c[nH]nc4-c4cc(Cl)ccc4F)nc3c2)n1	25.1 to 158 nM
OCCn1cc(-c2cnc3ccc(-c4c[nH]nc4-c4ccc(F)c(F)c4)nc3c2)cn1	≤ 20 nM

I am curious: what IC50 value has been reported for Fc1ccc(Cl)cc1-c1[nH]cnc1-c1ccc2ncc(-c3cnc4n3CCN4)cc2c1 ? 25.1 to 158 nM

Thanks! And CN(C)C1CCN(c2cnc3ccc(-c4c[nH]nc4-c4cc(Cl)c(F)cc4F)nc3c2)CC1 ? 25.1 to 158 nM

Thanks! And NCCn1cc(-c2cnc3ccc(-c4c[nH]nc4-c4ccc(F)c(F)c4)nc3c2)cn1 ? ≤ 20 nM

Thanks! And O=C(O)Cn1cc(-c2cnc3ccc(-c4c[nH]nc4-c4ccc(F)c(F)c4)nc3c2)cn1 ? 25.1 to 158 nM

Thanks! And COCc1cccc(-c2n[nH]cc2-c2ccc3ncc(-c4cn[nH]c4)cc3n2)c1 ? ≤ 20 nM

Thanks! And CC(C)N1CCN(CCNc2cnc3ccc(-c4nc[nH]c4-c4cc(Cl)ccc4F)cc3c2)CC1 ? 25.1 to 158 nM

Thanks! And Fc1cc(F)c(-c2[nH]cnc2-c2ccc3ncc(NCCN4CCNCC4)cc3c2)cc1Cl ? 25.1 to 158 nM

Thanks! And COC(=O)CC1CN(CCNc2cnc3ccc(-c4nc[nH]c4-c4cc(Cl)ccc4F)nc3c2)CCN1 (stereo not drawn) ? 25.1 to 158 nM

====

experimental system: recombinant human ALK5 (TGF-βR1) protein (Homo sapiens, UniProt P36897)
protocol: Biochemical ALK5 (TGF-βR1) assay to measure pKi (LANCE Ultra ULight kinase assay)
condition description: apparent pKi, converted from pIC50 using the Cheng-Prusoff equation
metric name: Ki

Worked cases, Ki given:
compound	recorded measurement
Fc1ccc(Cl)cc1-c1n[nH]cc1-c1ccc2ncc(-c3[nH]nc4c3CNCC4)cc2n1	0.0398 to 0.316 nM
CCN1CCC(N(C)c2cnc3ccc(-c4c[nH]nc4-c4cc(Cl)ccc4F)nc3c2)CC1	0.398 to 3.16 nM

I am curious: what Ki value has been reported for CCOC(=O)Cn1cc(-c2cnc3ccc(-c4c[nH]nc4-c4cc(Cl)ccc4F)nc3c2)nn1 ? ≤ 0.0316 nM

Thanks! And CN(C)C1CCN(c2cnc3ccc(-c4c[nH]nc4-c4ccc(F)c(F)c4)nc3c2)C1 (racemic) ? 0.398 to 3.16 nM

====

Test system: TGF-β-stimulated SMAD3 phosphorylation in BEAS-2B cells
protocol: Cellular ALK5 potency assay, inhibition of TGF-β stimulated pSMAD3 formation in BEAS-2B cells
Type: cell-based
condition description: Homo sapiens, inhibition of TGF-β (10 ng/mL) stimulated pSMAD3 formation, 1 hour compound incubation, read-out: BEAS2B pIC50 (converted)
Some compounds, each annotated with its measured IC50.

Worked cases, IC50 given:
compound	recorded measurement
Fc1ccc(Cl)cc1-c1nc2ccccn2c1-c1ccc2ncc(-c3cnn(C4CCCNC4)c3)cc2c1 (stereo not drawn)	200 to 1260 nM
Fc1ccc(Cl)cc1-c1[nH]cnc1-c1ccc2ncc(N3CCCNCC3)cc2c1	25.1 to 158 nM

I am curious: what IC50 value has been reported for Fc1ccc(Cl)cc1-c1n[nH]cc1-c1ccc2ncc(-c3cnc4n3CCN4)cc2n1 ? 25.1 to 158 nM

====

Some molecules, each annotated with its measured Ki.
experimental system: recombinant human ALK5 (TGF-βR1) protein (Homo sapiens, UniProt P36897)
Sequence (P36897 34-503): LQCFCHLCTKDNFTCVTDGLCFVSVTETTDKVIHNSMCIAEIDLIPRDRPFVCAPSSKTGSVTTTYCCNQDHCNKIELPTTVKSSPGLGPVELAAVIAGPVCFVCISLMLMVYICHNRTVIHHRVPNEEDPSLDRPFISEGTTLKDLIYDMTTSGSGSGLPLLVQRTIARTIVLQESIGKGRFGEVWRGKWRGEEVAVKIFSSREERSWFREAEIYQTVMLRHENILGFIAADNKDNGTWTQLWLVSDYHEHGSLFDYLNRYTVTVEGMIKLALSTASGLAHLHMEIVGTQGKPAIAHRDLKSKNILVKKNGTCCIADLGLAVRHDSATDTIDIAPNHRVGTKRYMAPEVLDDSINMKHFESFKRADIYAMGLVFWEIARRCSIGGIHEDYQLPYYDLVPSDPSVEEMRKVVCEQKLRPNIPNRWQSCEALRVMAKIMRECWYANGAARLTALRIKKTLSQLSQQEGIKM
protocol: Biochemical ALK5 (TGF-βR1) assay to measure pKi (LANCE Ultra ULight kinase assay)
condition description: apparent pKi, converted from pIC50 using the Cheng-Prusoff equation

molecule	Ki
Fc1ccc(Cl)cc1-c1n[nH]cc1-c1ccc2ncc(NCC3CCCCN3)cc2n1 (stereo not shown)	0.0398 to 0.316 nM
CN1CCN(C2CCN(c3cnc4ccc(-c5c[nH]nc5-c5ccc(F)c(F)c5)nc4c3)CC2)CC1	0.398 to 3.16 nM
Fc1ccc(Cl)cc1-c1[nH]nnc1-c1ccc2ncc(-c3c[nH]nc3C(F)(F)F)cc2n1	3.98 to 31.6 nM

The record that follows has no Ki shown yet.
So what Ki did CC(C)N1CCN(c2ccc(Nc3cnc4ccc(-c5c[nH]nc5-c5cc(Cl)ccc5F)nc4c3)nc2)CC1 get with recombinant human ALK5 (TGF-βR1) protein (Homo sapiens, UniProt P36897)? 0.0398 to 0.316 nM

Ref: patent US11730720B2
